- test_protocol: in vivo
- experimental_context: male, beagle, dog
assay_endpoint: MTD at 4 days (µg/kg)
Numbers only, in µg/kg.

Give reported MTD at 4 days value for CCCN[C@H]1CCc2nc(N)sc2C1 [S(−) pramipexole]
4.2

====

- experimental_target: human cloned dopamine receptor D3 (Homo sapiens)
- Sequence (P35462 whole entry): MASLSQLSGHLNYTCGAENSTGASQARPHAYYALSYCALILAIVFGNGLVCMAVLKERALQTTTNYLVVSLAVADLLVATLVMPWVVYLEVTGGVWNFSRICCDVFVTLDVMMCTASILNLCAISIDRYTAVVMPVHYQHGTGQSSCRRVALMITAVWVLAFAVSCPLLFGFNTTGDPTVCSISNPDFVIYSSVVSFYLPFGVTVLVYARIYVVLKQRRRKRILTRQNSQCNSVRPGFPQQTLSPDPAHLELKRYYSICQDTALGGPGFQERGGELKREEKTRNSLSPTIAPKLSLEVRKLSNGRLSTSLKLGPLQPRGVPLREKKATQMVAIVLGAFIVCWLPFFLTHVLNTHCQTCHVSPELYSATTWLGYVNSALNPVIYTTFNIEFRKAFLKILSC
assay_endpoint: Ki (nM)
One number for each entry, in nM.

Give reported Ki value for CCCN[C@H]1CCc2nc(N)sc2C1 (single isomer, unassigned) [R(+) pramipexole]
2700

====

- experimental_target: human cloned dopamine receptor D5 (Homo sapiens, UniProt P21918)
- Sequence (P21918 whole entry): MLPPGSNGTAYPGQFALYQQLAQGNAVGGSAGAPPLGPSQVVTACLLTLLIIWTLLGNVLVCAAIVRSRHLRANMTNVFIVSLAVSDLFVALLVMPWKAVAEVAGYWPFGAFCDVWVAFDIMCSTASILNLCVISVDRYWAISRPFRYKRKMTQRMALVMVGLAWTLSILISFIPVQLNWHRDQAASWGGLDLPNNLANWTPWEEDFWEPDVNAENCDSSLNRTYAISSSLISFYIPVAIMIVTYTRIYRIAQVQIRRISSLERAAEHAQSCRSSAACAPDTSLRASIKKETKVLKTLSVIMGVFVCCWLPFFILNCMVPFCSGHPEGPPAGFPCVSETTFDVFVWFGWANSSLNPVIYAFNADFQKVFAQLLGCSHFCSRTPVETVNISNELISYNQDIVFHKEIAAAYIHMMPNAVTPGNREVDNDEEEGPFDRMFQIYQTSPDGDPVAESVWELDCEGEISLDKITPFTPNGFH
assay_endpoint: IC50

Give reported IC50 value for CCCN[C@H]1CCc2nc(N)sc2C1 (single isomer, unassigned) [R(+) pramipexole]
> 100 µM
